Where do the numbers come from? From ChEMBL document CHEMBL4257575.

Target or test system: Multidrug resistance-associated protein 1 (Homo sapiens)
Sequence (P33527 whole entry): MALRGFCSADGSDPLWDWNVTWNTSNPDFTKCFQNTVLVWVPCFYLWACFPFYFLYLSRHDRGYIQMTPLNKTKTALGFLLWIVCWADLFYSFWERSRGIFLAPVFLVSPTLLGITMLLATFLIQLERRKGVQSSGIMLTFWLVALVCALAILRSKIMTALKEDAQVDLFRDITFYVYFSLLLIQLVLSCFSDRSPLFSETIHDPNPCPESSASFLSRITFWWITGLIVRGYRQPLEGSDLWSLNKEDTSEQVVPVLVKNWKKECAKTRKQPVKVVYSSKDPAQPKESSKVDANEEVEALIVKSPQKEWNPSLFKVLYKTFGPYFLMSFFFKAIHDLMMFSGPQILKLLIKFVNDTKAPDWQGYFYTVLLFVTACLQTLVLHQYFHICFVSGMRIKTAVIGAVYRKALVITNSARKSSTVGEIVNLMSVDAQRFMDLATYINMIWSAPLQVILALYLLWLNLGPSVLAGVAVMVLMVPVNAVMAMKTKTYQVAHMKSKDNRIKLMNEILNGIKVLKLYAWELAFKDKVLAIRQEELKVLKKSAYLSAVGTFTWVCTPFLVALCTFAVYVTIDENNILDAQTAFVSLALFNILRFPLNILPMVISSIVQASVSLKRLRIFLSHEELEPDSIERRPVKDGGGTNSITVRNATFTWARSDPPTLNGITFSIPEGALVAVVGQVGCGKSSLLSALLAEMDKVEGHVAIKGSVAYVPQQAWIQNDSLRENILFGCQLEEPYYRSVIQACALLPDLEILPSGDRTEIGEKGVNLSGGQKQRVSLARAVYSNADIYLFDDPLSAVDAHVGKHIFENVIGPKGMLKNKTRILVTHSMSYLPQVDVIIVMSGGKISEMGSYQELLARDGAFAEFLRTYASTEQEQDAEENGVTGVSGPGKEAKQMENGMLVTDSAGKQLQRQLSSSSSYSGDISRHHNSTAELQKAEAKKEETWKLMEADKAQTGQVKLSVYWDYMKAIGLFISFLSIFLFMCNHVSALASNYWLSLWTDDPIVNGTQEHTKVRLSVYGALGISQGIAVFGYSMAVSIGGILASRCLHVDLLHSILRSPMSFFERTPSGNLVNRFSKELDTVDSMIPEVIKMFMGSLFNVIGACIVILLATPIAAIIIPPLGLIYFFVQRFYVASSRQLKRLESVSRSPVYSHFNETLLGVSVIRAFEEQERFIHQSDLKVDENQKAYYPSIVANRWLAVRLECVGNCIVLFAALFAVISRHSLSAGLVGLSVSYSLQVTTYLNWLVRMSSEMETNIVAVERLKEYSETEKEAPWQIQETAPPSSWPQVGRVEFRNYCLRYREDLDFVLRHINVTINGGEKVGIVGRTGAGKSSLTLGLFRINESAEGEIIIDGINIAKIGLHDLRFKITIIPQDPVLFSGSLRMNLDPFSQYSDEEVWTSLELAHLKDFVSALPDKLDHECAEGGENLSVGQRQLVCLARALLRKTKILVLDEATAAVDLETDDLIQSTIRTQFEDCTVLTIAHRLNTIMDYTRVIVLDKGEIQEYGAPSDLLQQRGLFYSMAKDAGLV
Assay name: Inhibition of MRP1 in human 2008/MRP1 cells assessed as potentiation of doxorubicin-induced cytotoxicity by measuring cell survival at 2 uM after 5 days by MTS assay relative to control
Type: cell-based
Test conditions: 120 h
Let's look at some compounds and their measured Survival.
Quick note: give the figure in %, leave out the unit.

Sample answers from the record:
# Molecular string, Value units, Survival
data = [
    ("O=c1c(OCc2ccccc2)c(-c2ccc(OCCOCCn3cc(-c4ccc(-c5cn(CCOCCOc6ccc(-c7oc8ccccc8c(=O)c7OCc7ccccc7)cc6)nn5)cc4)nn3)cc2)oc2ccccc12", "%", 82),
    ("CCc1ccc(O)c(C(=O)/C=C/c2ccc(OCCCCc3cn(CCOCCOc4ccc(-c5cc(=O)c6ccccc6o5)cc4)nn3)cc2)c1", "%", 40),
    ("O=c1cc(-c2ccc(OCCOCCOCCn3cc(CN(CCOc4ccc5c(=O)cc(-c6ccccc6)oc5c4)Cc4ccccc4)nn3)cc2)oc2ccccc12", "%", 45),
    ("Cc1ccc2oc(-c3ccc(OCCOCCOCCn4cc(CNc5ccccc5)nn4)cc3)cc(=O)c2c1", "%", 86),
]

Task: Identify the reported Survival for the following entry. COc1cccc(COc2c(-c3ccc(OCCOCCN=[N+]=[N-])cc3)oc3ccccc3c2=O)c1
Output: 57

Task: Return Survival (reported value) for this compound: O=c1cc(-c2ccc(OCCCc3cn(CCOc4cccc5c(=O)cc(-c6ccccc6)oc45)nn3)cc2)oc2ccc(F)cc12
Output: 89
